MEASUREMENT KIND: melting point

Below, each entry is followed by its recorded melting point result.
{"columns": ["MOLECULE", "VALUE REPORTED"],
 "data": [
  ["CC1(C)CCC(C)(C)c2cc(C(/C=C/c3ccc(C(=O)O)cc3)Cc3ccc(Cl)cc3)ccc21 (racemic)", "168 to 169 °C"],
  ["CC1(C)CCC(C)(C)c2cc(C(Cc3ccc(C(F)(F)F)cc3)C(=O)Oc3ccc(C(=O)O)cc3)ccc21 (racemic)", "158 to 159 °C"],
  ["CCOCCC(C(=O)Oc1ccc(C(=O)O)cc1)c1ccc2c(c1)C(C)(C)CCC2(C)C (racemic)", "133 to 134 °C"]
]}

// below: melting point requested for another molecule
Which measured melting point value corresponds to CC1(C)CCC(C)(C)c2cc(C(Cc3ccccc3)C(=O)Oc3ccc(C(=O)O)cc3)ccc21 (racemic) ?
163 to 164 °C

====

MEASUREMENT KIND: melting point

Study these solved cases before continuing.
{"columns": ["COMPOUND", "VALUE REPORTED"],
 "data": [
  ["CCCCC(/C=C/c1ccc(C(=O)O)cc1)c1ccc2c(c1)C(C)(C)CCC2(C)C (racemic)", "107 to 108 °C"],
  ["CC1(C)CCSc2ccc(C(/C=C/c3ccc(C(=O)O)cc3)Cc3ccccc3)cc21 (racemic)", "183 to 184 °C"],
  ["CCCCCC(/C=C/c1ccc(C(=O)O)s1)c1ccc2c(c1)C(C)(C)CCC2(C)C (racemic)", "128 to 129 °C"],
  ["CC(C)CC(/C=C/c1ccc(C(=O)O)cc1)c1ccc2c(c1)C(C)(C)CCC2(C)C (racemic)", "61 to 78 °C"],
  ["CCCC(/C=C/c1ccc(C(=O)O)cc1)c1ccc2c(c1)C(C)(C)CCC2(C)C (racemic)", "116 to 118 °C"]
]}

Data request, read-out melting point, for CC1(C)CCC(C)(C)c2cc(C(/C=C/c3ccc(C(=O)O)cc3)CCc3ccccc3)ccc21 (racemic)
78 to 79 °C

Endpoint output: melting point of CC1(C)CCSc2ccc(C(/C=C/c3ccc(C(=O)O)cc3)CCc3ccccc3)cc21 (racemic) . Value?
63 to 76 °C

What does the record list as melting point for CCCCCC(/C=C/c1ccc(C(=O)O)cc1F)c1ccc2c(c1)C(C)(C)CCC2(C)C (racemic) ?
112 to 113 °C

Could you tell me which melting point is on file for CCCCCC(C#Cc1ccc(C(=O)O)cc1)c1ccc2c(c1)C(C)(C)CCC2(C)C (racemic) ?
115 to 116 °C

Query: melting point; subject: CC1(C)CCC(C)(C)c2cc(C(/C=C/c3ccc(C(=O)O)cc3)Cc3ccccc3)ccc21 (racemic)
183 to 184 °C

Any idea what its melting point is? The compound is CC1(C)CCC(C)(C)c2cc(C(/C=C/c3ccc(C(=O)O)cc3)Cc3ccc(F)cc3)ccc21 (racemic)
168 to 169 °C

Which melting point value belongs to CC(/C=C/c1ccc(C(=O)O)cc1)c1ccc2c(c1)C(C)(C)CCC2(C)C (racemic) ?
203 to 204 °C

What value of melting point has been reported for the following compound? COC(C(=O)Oc1ccc(C(=O)O)cc1)c1ccc2c(c1)C(C)(C)CCC2(C)C (racemic)
190 to 195 °C

# query: melting point of entry CCCCOC(C(=O)Oc1ccc(C(=O)O)cc1)c1ccc2c(c1)C(C)(C)CCC2(C)C (single isomer, unassigned) [Example 16 (from diastereomer II)]
113 to 114 °C

====

Overview of recorded melting point for various compounds

{"columns": ["COMPOUND", "melting point"],
 "data": [
  ["CCOC(C(=O)Oc1ccc(C(=O)O)cc1)c1ccc2c(c1)C(C)(C)CCC2(C)C (racemic) [Example 15.3. d)]", "123 to 125 °C"],
  ["CCCOC(C(=O)Oc1ccc(C(=O)O)cc1)c1ccc2c(c1)C(C)(C)CCC2(C)C (racemic) [Example 15.4. d)]", "155 to 156 °C"],
  ["CC=CCC(/C=C/c1ccc(C(=O)O)cc1)c1ccc2c(c1)C(C)(C)CCC2(C)C (racemic) [Example 10.4]", "145 to 147 °C"],
  ["CCCCOC(C(=O)Oc1ccc(C(=O)O)cc1)c1ccc2c(c1)C(C)(C)CCC2(C)C (single isomer, unassigned) [Example 16 (from diastereomer I)]", "112 to 113 °C"],
  ["COc1ccc(CC(/C=C/c2ccc(C(=O)O)cc2)c2ccc3c(c2)C(C)(C)CCC3(C)C)cc1 (racemic) [Example 10.15]", "170 to 175 °C"]
]}

Consider the record given below.
Query: melting point; subject: CC1(C)CCC(C)(C)c2cc(CCOc3ccc(C(=O)O)cc3)ccc21 [Example 11.2]
195 to 196 °C
